Biological target: Papain (Carica papaya) (UniProt P00784)
Assay: Second-order rate constants for the inactivation of papain (vacuolar plant enzyme)
reported_property: ki/Ki (M⁻¹ s⁻¹)
Please respond with the number in M⁻¹ s⁻¹ and leave the unit unwritten.

Consider the reported ki/Ki for these compounds:
{"compound": "CCOC(=O)C1NC1C(=O)N[C@@H](CC(C)C)C(=O)OCc1ccccc1 (stereo partly drawn)", "ki/Ki / M⁻¹ s⁻¹": 3.57}
{"compound": "CCOC(=O)[C@@H]1N[C@H]1C(=O)N[C@@H](CC(C)C)C(=O)O", "ki/Ki / M⁻¹ s⁻¹": 1.05}
{"compound": "CCOC(=O)C1C(C(=O)OCC)N1C(=O)[C@H](CC(C)C)NC(=O)OCC1c2ccccc2-c2ccccc21 (stereo partly drawn)", "ki/Ki / M⁻¹ s⁻¹": 1.08}
{"compound": "CC(C)CCNC(=O)[C@H](CC(C)C)NC(=O)[C@H]1N[C@@H]1C(=O)O", "ki/Ki / M⁻¹ s⁻¹": 0.167}
{"compound": "CCOC(=O)[C@@H]1[C@@H](C(=O)OCC)N1C(=O)[C@H](C)NC(=O)OCc1ccccc1", "ki/Ki / M⁻¹ s⁻¹": 1.22}
{"compound": "CCOC(=O)C1C(C(=O)OCc2ccccc2)N1C(=O)[C@H](Cc1ccccc1)NC(=O)OC(C)(C)C (stereo partly drawn)", "ki/Ki / M⁻¹ s⁻¹": 1.27}
{"compound": "CCOC(=O)C1C(C(=O)OCc2ccccc2)N1C(=O)CNC(=O)[C@H](CC(C)C)NC(=O)OC(C)(C)C (stereo partly drawn)", "ki/Ki / M⁻¹ s⁻¹": 2.48}

Prompt: Give the measured ki/Ki of `CCOC(=O)[C@@H]1[C@@H](C(=O)OCC)N1C(=O)[C@H](C)NC(=O)[C@H](Cc1ccccc1)NC(=O)CNC(=O)OCc1ccccc1` .
Response: 8.72

* * *

Target: Cathepsin B (Bos taurus)
Assay: Evaluated for second-order rate constants for the inactivation of mammalian lysosomal cathepsin B.
reported_property: log10(ki/Ki) (log10 of the value in M⁻¹ s⁻¹)
A difference of one corresponds to tenfold ki/Ki; all values are log10 with ki/Ki in M⁻¹ s⁻¹.

{"molecule": "CC[C@H](C)C(NC(=O)[C@@H]1N[C@H]1C(=O)NCC(C)C)C(=O)N1CCCC1C(=O)O (single isomer, unassigned)", "target_under_test": "Cathepsin B (Bos taurus)", "measured_result": 1.11}

Prompt: Give the measured log10(ki/Ki) of CCOC(=O)[C@@H]1[C@@H](C(=O)N[C@@H](CC(C)C)C(=O)N2CCCC2C(=O)OCc2ccccc2)N1C(=O)[C@H](Cc1ccccc1)NC(=O)OC(C)(C)C (some centres undefined) .
Response: 0.88

Prompt: Now the molecule `CCOC(=O)[C@@H]1[C@@H](C(=O)OCC)N1C(=O)[C@H](C)NC(=O)[C@H](Cc1ccccc1)NC(=O)CNC(=O)OCc1ccccc1`
Response: 0.85

Prompt: Now the molecule `CCOC(=O)[C@@H]1[C@@H](C(=O)OCC)N1C(=O)[C@H](Cc1ccccc1)NC(=O)[C@H](C)NC(=O)OCc1ccccc1`
Response: 0.32

Prompt: Now the molecule CCOC(=O)[C@H]1[C@H](C(=O)OCC)N1C(=O)C(Cc1ccccc1)NC(=O)OC(C)(C)C (single isomer, unassigned)
Response: -0.52

Prompt: Now the molecule CCOC(=O)[C@H]1[C@H](C(=O)OCC)N1C(=O)[C@H](Cc1ccccc1)NC(=O)C(C)NC(=O)OCc1ccccc1 (single isomer, unassigned)
Response: -0.44

Prompt: Now the molecule `CCOC(=O)[C@@H]1[C@@H](C(=O)OCC)N1C(=O)[C@H](C)NC(=O)[C@@H](Cc1ccccc1)NC(=O)OC(C)(C)C`
Response: 0.88

Prompt: Now the molecule `CCOC(=O)[C@H]1[C@H](C(=O)N[C@@H](CC(C)C)C(=O)OCc2ccccc2)N1C(=O)[C@H](Cc1ccccc1)NC(=O)OC(C)(C)C`
Response: 0.63

Prompt: Now the molecule `CCOC(=O)[C@@H]1[C@@H](C(=O)N[C@@H](CC(C)C)C(=O)OCc2ccccc2)N1C(=O)[C@H](Cc1ccccc1)NC(=O)OC(C)(C)C`
Response: 0.31

Prompt: Now the molecule CCOC(=O)C1C(C(=O)OCc2ccccc2)N1C(=O)[C@H](C)NC(=O)[C@H](Cc1ccccc1)NC(=O)OC(C)(C)C (some centres undefined)
Response: 0.87

Prompt: Now the molecule CCOC(=O)C1NC1C(=O)N[C@@H](CC(C)C)C(=O)OCc1ccccc1 (some centres undefined)
Response: -0.17

* * *

Molecular target: Calpain-2 catalytic subunit (Sus scrofa)
Sequence (P43367 whole entry): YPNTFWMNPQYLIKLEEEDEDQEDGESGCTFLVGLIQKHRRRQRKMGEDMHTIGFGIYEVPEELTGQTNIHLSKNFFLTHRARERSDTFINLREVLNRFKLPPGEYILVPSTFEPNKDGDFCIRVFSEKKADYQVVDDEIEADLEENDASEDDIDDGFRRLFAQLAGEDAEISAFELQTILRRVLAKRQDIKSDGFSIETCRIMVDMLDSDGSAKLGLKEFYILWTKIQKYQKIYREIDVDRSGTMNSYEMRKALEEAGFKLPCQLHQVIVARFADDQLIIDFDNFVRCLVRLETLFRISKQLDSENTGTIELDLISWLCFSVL
Assay: Inhibition constant for the non time dependent inhibition of Calpain 2
reported_property: Ki (µM)
Please respond with the number in µM and leave the unit unwritten.

Prompt: Give the measured Ki of `CCOC(=O)[C@H]1[C@H](C(=O)N[C@@H](CC(C)C)C(=O)OCc2ccccc2)N1C(=O)[C@H](Cc1ccccc1)NC(=O)OC(C)(C)C` .
Response: 42

* * *

Target: UniProtKB P07711
Sequence (P07711 114-333 limits assumed): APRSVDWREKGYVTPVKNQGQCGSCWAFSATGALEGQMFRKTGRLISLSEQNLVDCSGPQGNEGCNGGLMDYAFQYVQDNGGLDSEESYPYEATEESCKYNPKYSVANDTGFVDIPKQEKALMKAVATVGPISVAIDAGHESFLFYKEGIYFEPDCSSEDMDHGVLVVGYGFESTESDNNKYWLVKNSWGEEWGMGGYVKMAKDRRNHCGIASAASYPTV
Assay: Evaluated for second-order rate constants for the inactivation of mammalian lysosomal cathepsin L.
Consider the reported ki/Ki of an entry and match it to a band in class 0 = under 4 M⁻¹ s⁻¹, class 1 = from 4 M⁻¹ s⁻¹ up to 8 M⁻¹ s⁻¹, class 2 = 8 M⁻¹ s⁻¹ and over

Prompt: Hello team, could you let me know which band the following compound falls into: CCOC(=O)C1C(C(=O)OCC)N1C(=O)[C@H](CC(C)C)NC(=O)OCC1c2ccccc2-c2ccccc21 (some centres not stated)
Response: class 0

Prompt: Now the compound `CCOC(=O)[C@@H]1[C@@H](C(=O)N[C@@H](CC(C)C)C(=O)OCc2ccccc2)N1C(=O)[C@H](Cc1ccccc1)NC(=O)OC(C)(C)C`
Response: class 0

Prompt: Now the compound CC[C@H](C)C(NC(=O)[C@@H]1N[C@H]1C(=O)NCC(C)C)C(=O)N1CCCC1C(=O)O (single isomer, unassigned)
Response: class 2

Prompt: Now the compound CCOC(=O)[C@H]1[C@H](C(=O)OCC)N1C(=O)[C@H](Cc1ccccc1)NC(=O)C(C)NC(=O)OCc1ccccc1 (single isomer, unassigned)
Response: class 0

Prompt: Now the compound CCOC(=O)C1C(C(=O)OCc2ccccc2)N1C(=O)[C@H](C)NC(=O)[C@H](Cc1ccccc1)NC(=O)OC(C)(C)C (some centres not stated)
Response: class 1

Prompt: Now the compound `CCOC(=O)[C@@H]1[C@@H](C(=O)OCC)N1C(=O)[C@H](C)NC(=O)[C@H](Cc1ccccc1)NC(=O)CNC(=O)OCc1ccccc1`
Response: class 1

Prompt: Now the compound `CCOC(=O)[C@@H]1[C@@H](C(=O)OCC)N1C(=O)[C@H](Cc1ccccc1)NC(=O)[C@H](C)NC(=O)OCc1ccccc1`
Response: class 0

Prompt: Now the compound `CCOC(=O)[C@@H]1[C@@H](C(=O)OCC)N1C(=O)CNC(=O)CNC(=O)OCc1ccccc1`
Response: class 1

Prompt: Now the compound `CCOC(=O)[C@@H]1[C@@H](C(=O)OCC)N1C(=O)[C@H](C)NC(=O)OCc1ccccc1`
Response: class 1

Prompt: Now the compound CCOC(=O)[C@H]1[C@H](C(=O)OCC)N1C(=O)C(Cc1ccccc1)NC(=O)OC(C)(C)C (single isomer, unassigned)
Response: class 0

Prompt: Now the compound `CCOC(=O)[C@H]1[C@H](C(=O)N[C@@H](CC(C)C)C(=O)OCc2ccccc2)N1C(=O)[C@H](Cc1ccccc1)NC(=O)OC(C)(C)C`
Response: class 1

Prompt: Now the compound `CCOC(=O)[C@H]1N[C@@H]1C(=O)N[C@@H](CC(C)C)C(=O)N1CCC[C@H]1C(=O)OCc1ccccc1`
Response: class 2

* * *

Target: Papain (Carica papaya) (UniProt P00784)
Sequence (whole entry): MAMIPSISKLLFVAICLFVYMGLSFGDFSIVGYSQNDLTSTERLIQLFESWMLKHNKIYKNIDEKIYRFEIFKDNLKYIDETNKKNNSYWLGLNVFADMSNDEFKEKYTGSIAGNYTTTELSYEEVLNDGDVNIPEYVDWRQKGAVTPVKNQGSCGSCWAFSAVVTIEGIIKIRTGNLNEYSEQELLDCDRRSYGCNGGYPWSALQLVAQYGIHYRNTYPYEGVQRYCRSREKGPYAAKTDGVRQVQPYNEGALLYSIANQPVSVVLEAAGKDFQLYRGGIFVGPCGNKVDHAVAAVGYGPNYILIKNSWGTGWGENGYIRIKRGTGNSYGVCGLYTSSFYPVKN
Assay: Second-order rate constants for the inactivation of papain (vacuolar plant enzyme)
In this section we review reported ki/Ki values for a set of molecules.
Please respond with the number in M⁻¹ s⁻¹ and leave the unit unwritten.

{"molecule": "CC(C)CCNC(=O)C(CC(C)C)NC(=O)[C@@H]1N[C@H]1C(=O)O (single isomer, unassigned)", "target_under_test": "Papain (Carica papaya) (UniProt P00784)", "measured_result": 0.167}
{"molecule": "CCOC(=O)C1C(C(=O)O)N1C(=O)[C@H](Cc1ccccc1)NC(=O)OC(C)(C)C (stereo not given in full)", "target_under_test": "Papain (Carica papaya) (UniProt P00784)", "measured_result": 8.42}
{"molecule": "CCOC(=O)[C@H]1[C@H](C(=O)OCC)N1C(=O)C(Cc1ccccc1)NC(=O)OC(C)(C)C (single isomer, unassigned)", "target_under_test": "Papain (Carica papaya) (UniProt P00784)", "measured_result": 0.7}
{"molecule": "CCOC(=O)C1C(C(=O)OCc2ccccc2)N1C(=O)[C@H](C)NC(=O)[C@H](Cc1ccccc1)NC(=O)OC(C)(C)C (stereo not given in full)", "target_under_test": "Papain (Carica papaya) (UniProt P00784)", "measured_result": 20.5}

Prompt: Lab note: need ki/Ki for `CCOC(=O)[C@@H]1[C@@H](C(=O)OCC)N1C(=O)[C@H](C)NC(=O)[C@@H](Cc1ccccc1)NC(=O)OC(C)(C)C` on Papain (Carica papaya) (UniProt P00784), anyone have it?
Response: 22.8
